Record type: Ki measurement. Applies to: ML-IAP (Homo sapiens)

Solved cases (8 shown):
CN[C@@H](C)C(=O)N[C@H]1CCS[C@H]2CC(C)(C)[C@@H](C(=O)N[C@H]3c4ccccc4C[C@H]3OCC#CC#CCO[C@@H]3Cc4ccccc4[C@@H]3NC(=O)[C@H]3N4C(=O)[C@@H](NC(=O)[C@H](C)NC)CCS[C@H]4CC3(C)C)N2C1=O [Compound 18a] :: 50 to 100 nM
CC[C@H](NC)C(=O)N[C@H]1CCS[C@H]2CC(C)(C)[C@@H](C(=O)N[C@H]3c4ccccc4C[C@H]3OCC#CC#CCO[C@@H]3Cc4ccccc4[C@@H]3NC(=O)[C@H]3N4C(=O)[C@@H](NC(=O)[C@H](CC)NC)CCS[C@H]4CC3(C)C)N2C1=O [Compound 18m] :: 50 to 100 nM
CN[C@@H](C)C(=O)N[C@H]1CCS[C@H]2CC(C)(C)[C@@H](C(=O)N[C@H]3c4ccccc4C[C@H]3OCc3ccc(CO[C@@H]4Cc5ccccc5[C@@H]4NC(=O)[C@H]4N5C(=O)[C@@H](NC(=O)[C@H](C)NC)CCS[C@H]5CC4(C)C)cc3)N2C1=O [Compound 18g] :: 50 to 100 nM
CN[C@@H](C)C(=O)N[C@H]1CCS[C@H]2CC(C)(C)[C@@H](C(=O)N[C@H]3c4ccccc4C[C@H]3OCC#Cc3ccc(CO[C@@H]4Cc5ccccc5[C@@H]4NC(=O)[C@H]4N5C(=O)[C@@H](NC(=O)[C@H](C)NC)CCS[C@H]5CC4(C)C)cc3)N2C1=O [Compound 18e] :: 100 to 200 nM
CN[C@@H](C)C(=O)N[C@H]1CCS[C@H]2CC(C)(C)[C@@H](C(=O)N[C@H]3c4ccccc4C[C@H]3OCC#Cc3ccc(C#CCO[C@@H]4Cc5ccccc5[C@@H]4NC(=O)[C@H]4N5C(=O)[C@@H](NC(=O)[C@H](C)NC)CCS[C@H]5CC4(C)C)cc3)N2C1=O [Compound 18c] :: 50 to 100 nM
CN[C@@H](C)C(=O)N[C@H]1CCS[C@H]2CC(C)(C)[C@@H](C(=O)N[C@H](CCOCC#CC#CCOCC[C@@H](NC(=O)[C@H]3N4C(=O)[C@@H](NC(=O)[C@H](C)NC)CCS[C@H]4CC3(C)C)c3ccccc3)c3ccccc3)N2C1=O [Compound 18i] :: 50 to 100 nM
CN[C@@H](C)C(=O)N[C@H]1CCS[C@H]2CC3(CC=CC3)[C@@H](C(=O)N[C@H]3c4ccccc4C[C@H]3OCC#CC#CCO[C@@H]3Cc4ccccc4[C@@H]3NC(=O)[C@H]3N4C(=O)[C@@H](NC(=O)[C@H](C)NC)CCS[C@H]4CC34CC=CC4)N2C1=O [Compound 18o] :: 100 to 200 nM
CN[C@@H](C)C(=O)N[C@H]1CCS[C@H]2CC(C)(C)[C@@H](C(=O)N[C@H]3c4ccccc4C[C@H]3OCCCCCCO[C@@H]3Cc4ccccc4[C@@H]3NC(=O)[C@H]3N4C(=O)[C@@H](NC(=O)[C@H](C)NC)CCS[C@H]4CC3(C)C)N2C1=O [Compound 18b] :: 50 to 100 nM

Any idea what its Ki is? The compound is CN[C@@H](C)C(=O)N[C@H]1CCO[C@H]2CC(C)(C)[C@@H](C(=O)N[C@H]3c4ccccc4C[C@H]3OCC#CC#CCO[C@@H]3Cc4ccccc4[C@@H]3NC(=O)[C@H]3N4C(=O)[C@@H](NC(=O)[C@H](C)NC)CCO[C@H]4CC3(C)C)N2C1=O [Compound 18q]
50 to 100 nM
